The entries below are paired with their reported Response of mAb-2 Binding to nFel d1 pre-complexed with mAb-1.
target: T1, natural Fel d1 (Indoor Biotech, #NA-FD1-2) (cat, UniProt P30438 23-92; P30440 18-109); experiment: Octet BLI sandwich; nFel d1 pre-complexed with captured mAb-1 H4H2636P (competitor); self-competition value subtracted
T1 construct: Bought natural heterodimeric glycoprotein, chains linked by disulfide bonds; also called nFel d1; nFel d 1
T1 sequence (P30438 other isoform, or with tags, fused parts or gaps, chain 1 of 2): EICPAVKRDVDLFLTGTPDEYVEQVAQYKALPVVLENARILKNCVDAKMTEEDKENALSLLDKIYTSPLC
T1 sequence (P30440 18-109, chain 2 of 2): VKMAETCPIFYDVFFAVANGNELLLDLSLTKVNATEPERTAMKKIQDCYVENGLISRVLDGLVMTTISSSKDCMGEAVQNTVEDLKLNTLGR
reported property: Response of mAb-2 Binding to nFel d1 pre-complexed with mAb-1 (nm)

binder="H4H1232N (antibody, human IgG4, V domains shown, human IgG4 Fc (H4H prefix)) VH: EVQLVESGGGLVKPGGSLRLSCAASGFTFRNYNINWVRQAPGKGLEWVSLISGSSSYIYYADSVKGRFTVSRDNAKNSLYLQMNSLRAEDTAVYYCARRTLSYYVMDVWGQGTTVTVSS VL: DIQVTQSPSPLSASVGDRVTITCRASQGISNYLAWYQQKPGRVPQLLIYAASTLQSGVPSRFSGSGSGTDFTLTISSLQPEDVATYYCQKYNSAPYTFGQGTKLEIK" observed_result=0.29
binder="H4H2864P (antibody, human IgG4, V domains shown, human IgG4 Fc (H4H prefix)) VH: EVQLVESGGGLAQPGGSLRLSCAASGFTFNNYAMTWVRQAPGKGLDWVSAISDSGRSTFSADSVKGRFTISRDNSKNTLYLQMDSLRAEDTALYYCAKHRNWNYPVFDYWGQGTLVTVSS VL: DIQLTQSPSFLSASVGDRVTITCWASQGISSYLAWYQQKPGKAPKLLIYSASTLQSGVPSRFSGSGSGTEFTLTISSLQPEDFATYYCQQLNSYPFTFGPGTKVDIK" observed_result=0
binder="H4H2645P (antibody, human IgG4, V domains shown, human IgG4 Fc (H4H prefix)) VH: EVQLVESGGGLVQPGGSLRLSCAASGFTFSTYAMHWVRQAPGKGLEWVSSISGRGRNSDHADSVKGRFTISRDNSKNTLYLQMNSLRAEDTAVYYCARTEYFHHWGQGTLVTVSS VL: DIQMTQSPSSLSASVGDRITITCRASQDINNYLAWFQQKPGKAPKSLIYGASSLQSGVPSKFSGSGSGTDFTLTISSLQPEDFATYYCQQYSSYPFTFGPGTKVDIK" observed_result=0

The values you see were collected from patent US20220025029A1.
